Target: GST-tagged GDP-loaded KRAS G12V (amino acids 1-169) (Homo sapiens, UniProt P01116, G12V)
Construct: GST-tagged GDP-loaded KRAS G12V (amino acids 1-169)
Sequence (P01116 1-169 isoform P01116-2 G12V): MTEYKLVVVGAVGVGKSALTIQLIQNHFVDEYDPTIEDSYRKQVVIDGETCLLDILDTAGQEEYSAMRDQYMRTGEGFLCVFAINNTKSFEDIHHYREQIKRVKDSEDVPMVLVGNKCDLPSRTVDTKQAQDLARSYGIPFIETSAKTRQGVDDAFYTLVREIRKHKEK
Test: KRAS G12V probe displacement assay (TR-FRET)
Conditions: displacement of biotinylated probe 2 from GDP-loaded KRAS G12V
Description: KRAS WT and KRAS G12V Probe Displacement Assay This assay was used to identify compounds which bind to GDP-loaded KRAS protein and are able to displace a biotinylated probe occupying the KRAS binding site. […] The TR-FRET signals (ex337 nm, em665 nm/620 nm) were read on BMG PHERAstar FSX instrument. The inhibition percentage of KRAS protein binding with biotinylated probe in presence of increasing concentrations of compounds was calculated based on the ratio of fluorescence at 665 nm to that at 620 nm. […]
pIC50: −log10 of the molar value.
Decide using pIC50: a value greater than or equal to 8 is TRUE, a smaller one is FALSE.

- COMPOUND: "Nc1nc2c(-c3c(Cl)cc4c(NC5CCC5)nc(OC[C@@]56CCCN5C[C@H](F)C6)nc4c3F)ccc(F)c2s1"
  GROUP LABEL: "FALSE"
- COMPOUND: "Nc1nc2c(-c3c(C(F)(F)F)cc4c(N[C@H]5C[C@@H](O)C5)nc(OC[C@@]56CCCN5C[C@H](F)C6)nc4c3F)ccc(F)c2s1"
  GROUP LABEL: "TRUE"
- COMPOUND: "C[C@@H]1C[C@@H](C#N)CCN1c1nc(OC[C@@]23CCCN2C[C@H](F)C3)nc2c(F)c(-c3ccc(F)c4sc(N)c(C#N)c34)c(C(F)(F)F)cc12"
  GROUP LABEL: "TRUE"
- COMPOUND: "Nc1nc2c(-c3c(C(F)(F)F)cc4c(N5CCC6(CC5)CN(CC(F)(F)F)C(=O)O6)nc(OC[C@@]56CCCN5C[C@H](F)C6)nc4c3F)ccc(F)c2s1"
  GROUP LABEL: "TRUE"
- COMPOUND: "Nc1nc2c(-c3c(Cl)cc4c(NC56CC(C5)C6)nc(OC[C@@]56CCCN5C[C@H](F)C6)nc4c3F)ccc(F)c2s1"
  GROUP LABEL: "FALSE"
- COMPOUND: "Nc1nc2c(-c3c(C(F)(F)F)cc4c(N5CC[C@@H](CO)C5)nc(OC[C@@]56CCCN5C[C@H](F)C6)nc4c3F)ccc(F)c2s1"
  GROUP LABEL: "TRUE"
- COMPOUND: "Nc1nc2c(-c3c(C(F)(F)F)cc4c(NC5CC5c5ccccc5)nc(OC[C@@]56CCCN5C[C@H](F)C6)nc4c3F)ccc(F)c2s1 (relative stereo)"
  GROUP LABEL: "FALSE"
- COMPOUND: "C[C@@]1(O)CCCN(c2nc(OC[C@@]34CCCN3C[C@H](F)C4)nc3c(F)c(-c4cc(N)cc(Cl)c4C(F)(F)F)ncc23)C1"
  GROUP LABEL: "TRUE"
- COMPOUND: "CC(=O)N1C[C@@H]2[C@H](C1)[C@H]2Nc1nc(OC[C@@]23CCCN2C[C@H](F)C3)nc2c(F)c(-c3ccc(F)c4sc(N)nc34)c(C(F)(F)F)cc12"
  GROUP LABEL: "TRUE"
